The origin of these recorded values is patent US20210238184A1.

molecular target: TEAD3 YAP50-100 (Homo sapiens, UniProt Q99594); assay: TEAD3:YAP50-100 protein-protein interaction HTRF (TR-FRET) assay; conditions: His-tagged TEAD YAP binding domain (aa 217-447), biotinylated YAP peptide aa 50-100; 30 min pre-incubation, 60 min at room temperature; read-out: TEAD3 YAP50-100 HTRF WuXi EC50
Sequence (Q99594 216-435 limits assumed): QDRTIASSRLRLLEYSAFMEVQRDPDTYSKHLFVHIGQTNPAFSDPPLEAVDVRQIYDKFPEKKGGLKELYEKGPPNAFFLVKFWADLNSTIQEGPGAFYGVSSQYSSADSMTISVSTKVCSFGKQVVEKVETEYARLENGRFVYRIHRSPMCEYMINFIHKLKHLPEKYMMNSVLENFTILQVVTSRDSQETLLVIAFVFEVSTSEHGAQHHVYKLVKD
pEC50: −log10 of the molar value.
observable: pEC50

// below: answered molecules
[[record]]
molecule = "CCOC(=O)c1cnn2c(=O)cc(-c3ccc(N4CCCCC4)cc3)[nH]c12 [Example 18]"
observable = "pEC50"
reported = 6.62

[[record]]
molecule = "CCOC(=O)c1cnn2c(=O)cc(-c3ccc(C4CCCC4(C)C)cc3)[nH]c12 (single isomer, unassigned) [Example 19]"
observable = "pEC50"
reported = 7.43


a. CCOC(=O)c1cnn2c(=O)cc(-c3ccc(-c4ccccc4)cc3)[nH]c12 [Example 34]
b. CCOC(=O)c1cnn2c(=O)cc(-c3ccc(Oc4ccccc4)c(C)c3)[nH]c12 [Example 14]
Pick one, a or b : lowest reported pEC50. // output: label of the selected item
b
(b: 6.18, a: 7.39)
